Attribution: patent US20250163162A1

Target: T1, IL10Rα and IL2Rγ on human primary cells (CD8 T cells, CD4 T cells, monocytes) (human) (UniProt Q13651)
T1 sequence (looked up) 1: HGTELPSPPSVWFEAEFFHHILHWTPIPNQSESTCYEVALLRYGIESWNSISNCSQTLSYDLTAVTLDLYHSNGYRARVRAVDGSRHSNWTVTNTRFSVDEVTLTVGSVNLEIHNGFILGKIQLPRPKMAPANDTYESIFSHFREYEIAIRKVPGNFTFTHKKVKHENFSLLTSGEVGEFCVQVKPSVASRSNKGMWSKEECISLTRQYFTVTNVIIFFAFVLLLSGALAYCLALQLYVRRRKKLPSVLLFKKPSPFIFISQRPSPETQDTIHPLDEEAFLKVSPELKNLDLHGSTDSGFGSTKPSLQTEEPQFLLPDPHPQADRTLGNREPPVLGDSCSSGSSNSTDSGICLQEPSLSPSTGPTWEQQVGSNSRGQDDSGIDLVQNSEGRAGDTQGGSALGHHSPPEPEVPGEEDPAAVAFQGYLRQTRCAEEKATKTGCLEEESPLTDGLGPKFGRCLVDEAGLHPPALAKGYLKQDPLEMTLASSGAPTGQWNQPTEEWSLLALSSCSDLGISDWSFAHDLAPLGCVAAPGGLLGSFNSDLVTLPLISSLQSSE
T1 sequence (looked up) 2: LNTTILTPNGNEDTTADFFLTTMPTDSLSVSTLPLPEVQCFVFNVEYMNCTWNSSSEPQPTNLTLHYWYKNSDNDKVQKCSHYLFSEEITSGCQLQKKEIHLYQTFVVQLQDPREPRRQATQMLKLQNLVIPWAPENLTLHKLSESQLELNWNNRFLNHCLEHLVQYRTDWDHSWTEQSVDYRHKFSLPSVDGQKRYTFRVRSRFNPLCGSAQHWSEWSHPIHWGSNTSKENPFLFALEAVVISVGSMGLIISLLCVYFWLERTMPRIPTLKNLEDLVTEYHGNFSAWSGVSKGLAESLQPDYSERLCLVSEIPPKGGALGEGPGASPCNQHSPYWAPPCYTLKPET
Assay: cell-based or functional assay

binder	pSTAT3 (MFI) in CD4 T cells at 10 µM
hIL10Ra_VHH14-hIL2Rg_VHH19, linker GGGS, tag his (bispecific antibody, not shown: small tags and cut ends) QVQLQESGGGSVQAGGSLRLSCGASGYTYSSYCMGWFRQVPGKEREGVAVIDSDGSTSYADSVKGRFTISKDNGKNTLYLQMNSLKPEDTAMYYCAADLGHYRPPCGVLYLGMDYWGKGTQVTVSSGGGSQVQLQESGGGSVQAGGSLRLSCTASGFTFDDREMNWYRQAPGNECELVSTISSDGSTYYADSVKGRFTISQDNAKNTVYLQMDSVKPEDTAVYYCAADFMIAIQAPGAGCWGQGTQVTVSS	11400
hIL10Ra_VHH14-hIL2Rg_VHH19, no linker, tag his (bispecific antibody, not shown: small tags and cut ends) QVQLQESGGGSVQAGGSLRLSCGASGYTYSSYCMGWFRQVPGKEREGVAVIDSDGSTSYADSVKGRFTISKDNGKNTLYLQMNSLKPEDTAMYYCAADLGHYRPPCGVLYLGMDYWGKGTQVTVSSQVQLQESGGGSVQAGGSLRLSCTASGFTFDDREMNWYRQAPGNECELVSTISSDGSTYYADSVKGRFTISQDNAKNTVYLQMDSVKPEDTAVYYCAADFMIAIQAPGAGCWGQGTQVTVSS	11800
hIL10Ra_VHH14-hIL2Rg_VHH19, linker …, tag his (bispecific antibody, not shown: small tags and cut ends) QVQLQESGGGSVQAGGSLRLSCGASGYTYSSYCMGWFRQVPGKEREGVAVIDSDGSTSYADSVKGRFTISKDNGKNTLYLQMNSLKPEDTAMYYCAADLGHYRPPCGVLYLGMDYWGKGTQVTVSSGGSGGSGGSGQVQLQESGGGSVQAGGSLRLSCTASGFTFDDREMNWYRQAPGNECELVSTISSDGSTYYADSVKGRFTISQDNAKNTVYLQMDSVKPEDTAVYYCAADFMIAIQAPGAGCWGQGTQVTVSS	11400
hIL10Ra_VHH14-hIL2Rg_VHH19, linker GS, tag his (bispecific antibody, not shown: small tags and cut ends) QVQLQESGGGSVQAGGSLRLSCGASGYTYSSYCMGWFRQVPGKEREGVAVIDSDGSTSYADSVKGRFTISKDNGKNTLYLQMNSLKPEDTAMYYCAADLGHYRPPCGVLYLGMDYWGKGTQVTVSSGSQVQLQESGGGSVQAGGSLRLSCTASGFTFDDREMNWYRQAPGNECELVSTISSDGSTYYADSVKGRFTISQDNAKNTVYLQMDSVKPEDTAVYYCAADFMIAIQAPGAGCWGQGTQVTVSS	12600
